Molecular target: Sa-ClpP (Staphylococcus aureus)
Sequence (Q2G036 whole entry): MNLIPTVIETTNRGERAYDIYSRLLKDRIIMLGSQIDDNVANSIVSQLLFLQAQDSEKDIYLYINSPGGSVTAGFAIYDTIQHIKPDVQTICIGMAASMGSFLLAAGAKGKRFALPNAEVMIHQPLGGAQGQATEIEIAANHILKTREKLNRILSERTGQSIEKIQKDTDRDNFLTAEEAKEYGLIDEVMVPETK
Numbered stars: 1 amine (or outer) side, 2 acyl side, 3 side chain; on linkers, the order of the positions; unused ones are H or OH. Bridge positions count the residues as written; N and C are the ends. Square brackets hold non-standard residues; d marks the D form. Peptide text beside a SMILES is read from it. * marks the point of attachment. X5 = O=C([C@@H]1C[C@@H](OP(=O)(O)O)CN1[*:1])[*:2]; Phe(3-Me) = Cc1cccc(C[C@H](N)C(=O)O)c1; NH(4-Cl-2-F-phenyl) = Fc1cc(Cl)ccc1N*; Pro(4R-Me) = C[C@H]1CN[C@H](C(=O)O)C1; Hyp = O=C(O)[C@@H]1C[C@@H](O)CN1; NH(4-Et-phenyl) = CCc1ccc(N*)cc1; aThr = C[C@H](O)[C@H](N)C(=O)O; Pip = O=C(O)[C@@H]1CCCCN1; CO = O=C([*:1])[*:2]
Just a reminder that ties go to Not satisfied: only IC50 strictly below 4 µM counts as Satisfied.

Below are worked cases with known answers.
molecule=Cc1cccc(C[C@H](NC(=O)Nc2ccc3c(c2)OCCO3)C(=O)N[C@H]2COC(=O)[C@@H]3C[C@@H](C)CN3C(=O)[C@H](C)NC(=O)[C@@H]3CCCCN3C(=O)[C@@H]3CCCN3C2=O)c1 tested_target="Sa-ClpP (Staphylococcus aureus)" category_label="Not satisfied"
molecule="Cc1cccc(C[C@H](NC(=O)Nc2ccc(Cl)cc2F)C(=O)N[C@@H]2C(=O)N3C[C@H](O)C[C@H]3C(=O)N3CCCC[C@H]3C(=O)N[C@@H](C)C(=O)N3C[C@H](C)C[C@H]3C(=O)O[C@H]2C)c1 [Compound 6] ({NH(4-Cl-2-F-phenyl)-CO}-[Phe(3-Me)][aThr][Hyp][Pip]A[Pro(4R-Me)]; ester 2-C)" tested_target="Sa-ClpP (Staphylococcus aureus)" category_label=Satisfied
molecule="Cc1cccc(C[C@H](NC(=O)Nc2ccc(Cl)cc2F)C(=O)N[C@@H]2C(=O)N3C[C@H](OP(=O)(O)O)C[C@H]3C(=O)N3CCCC[C@H]3C(=O)N[C@@H](C)C(=O)N3C[C@H](C)C[C@H]3C(=O)O[C@H]2C)c1 [Compound 29] ({NH(4-Cl-2-F-phenyl)-CO}-[Phe(3-Me)][aThr][X5][Pip]A[Pro(4R-Me)]; ester 2-C)" tested_target="Sa-ClpP (Staphylococcus aureus)" category_label="Not satisfied"
molecule="CCc1ccc(NC(=O)N[C@@H](Cc2cccc(C)c2)C(=O)N[C@@H]2C(=O)N3C[C@H](O)C[C@H]3C(=O)N3CCCC[C@H]3C(=O)N[C@@H](C)C(=O)N3C[C@H](C)C[C@H]3C(=O)O[C@H]2C)cc1 [Compound 25] ({NH(4-Et-phenyl)-CO}-[Phe(3-Me)][aThr][Hyp][Pip]A[Pro(4R-Me)]; ester 2-C)" tested_target="Sa-ClpP (Staphylococcus aureus)" category_label="Not satisfied"

Ask: In the record for Cc1cccc(C[C@H](NC(=O)Nc2ccc(Cl)cc2F)C(=O)N[C@H]2COC(=O)[C@@H]3C[C@@H](C)CN3C(=O)[C@H](C)NC(=O)[C@@H]3CCCCN3C(=O)[C@@H]3C[C@H](N)CN3C2=O)c1 , is IC50 less than 4 µM?
Reply: Not satisfied
